The measurements presented in this section are drawn from ChEMBL document CHEMBL1123969.

test system: Felis catus; test: Effective dose for lowering blood pressure in anesthetized cat when administered intravenously; assay type: functional; conditions: iv
quantity: ED20 (mg/kg)
Provide only the numeric value, understood in mg/kg.

ED20 recorded for this compound, C=C[C@@]1(C)CC(=O)[C@]2(O)C3(C)C(C(O)C(OC(=O)CN4CCSCC4)[C@@]2(C)O1)C(C)(C)CC[C@@H]3O.Cl (some centres not stated) , is 3

// recorded ED20 for C=C[C@@]1(C)CC(=O)[C@]2(O)C3(C)C(C(O)C(OC(=O)C(C)Nc4ccccc4)[C@@]2(C)O1)C(C)(C)CC[C@@H]3O (some centres not stated) : 3

get_value(item= C=C[C@@]1(C)CC(=O)[C@]2(O)C3(C)C(C(OC(=O)CCCN4CCCCC4)C(O)[C@@]2(C)O1)C(C)(C)CC[C@@H]3O.Cl (some centres not stated) , readout=ED20) returns 3

// C=C[C@@]1(C)CC(=O)[C@]2(O)C3(C)C(C(OC(=O)CCCCN4CCCCC4)C(O)[C@@]2(C)O1)C(C)(C)CC[C@@H]3O.Cl (some centres not stated) : ED20 value = 1

Lab note: measured ED20 of C=C[C@@]1(C)CC(=O)[C@]2(O)C3(C)C(C(OC(=O)C(C)N4CCN(C)CC4)C(O)[C@@]2(C)O1)C(C)(C)CC[C@@H]3O.Cl (some centres not stated) was 3

Reported ED20 for C=C[C@@]1(C)CC(=O)[C@]2(O)C3(C)C(C(O)C(OC(=O)CNc4ccccc4)[C@@]2(C)O1)C(C)(C)CC[C@@H]3O (some centres not stated) was 2

Please fill in: ED20 reported for C=C[C@@]1(C)CC(=O)[C@]2(O)C3(C)C(C(O)C(OC(=O)CN4CCCCC4)[C@@]2(C)O1)C(C)(C)CC[C@@H]3O.Cl (some centres not stated) = 10

---

test system: Felis catus; test: Effective dose for lowering blood pressure in anesthetized cat when administered intravenously; format: functional; settings: iv
Assignment: determine reported log10 of ED20 for the given molecules.
On a log10 scale: recorded ED20, unit mg/kg.

In plain terms, C=C[C@@]1(C)CC(=O)[C@]2(O)C3(C)C(C(O)C(OC(=O)CN4CCCC4)[C@@]2(C)O1)C(C)(C)CC[C@@H]3O.Cl (some centres undefined) has a documented log10 of ED20 of 0.60

Lab book: log10 of ED20 of C=C[C@@]1(C)CC(=O)[C@]2(O)C3(C)C(C(OC(=O)CCN4CCCCC4)C(O)[C@@]2(C)O1)C(C)(C)CC[C@@H]3O.Cl (some centres undefined) noted as 0.00

Recorded result, C=C[C@@]1(C)CC(=O)[C@]2(O)C3(C)C(C(OC(=O)CCCN4CCOCC4)C(O)[C@@]2(C)O1)C(C)(C)CC[C@@H]3O.Cl (some centres undefined) , log10 of ED20: 0.30

The recorded log10 of ED20 for entry C=C[C@@]1(C)CC(=O)[C@]2(O)[C@@]3(C)[C@@H](O)CCC(C)(C)[C@@H]3[C@H](O)[C@H](OC(C)=O)[C@@]2(C)O1 [COLFORSIN] equals -1.42

Record summary for C=C[C@@]1(C)CC(=O)[C@]2(O)C3(C)C(C(O)C(OC(=O)Cn4c(=O)c5c(ncn5COCCOC)n(C)c4=O)[C@@]2(C)O1)C(C)(C)CC[C@@H]3O (some centres undefined) : reported log10 of ED20 = 0.78

// sample C=C[C@@]1(C)CC(=O)[C@]2(O)C3(C)C(C(O)C(OC(=O)CCCN4CCOCC4)[C@@]2(C)O1)C(C)(C)CC[C@@H]3O.Cl (some centres undefined) , its log10 of ED20 was 0.26

log10 of ED20 for C=C[C@@]1(C)CC(=O)[C@]2(O)C3(C)C(C(O)C(OC(=O)CN4CCC(O)CC4)[C@@]2(C)O1)C(C)(C)CC[C@@H]3O.Cl (some centres undefined) is 0.48

Consider C=C[C@@]1(C)CC(=O)[C@]2(O)C3(C)C(C(OC(=O)CN4CCOCC4)C(O)[C@@]2(C)O1)C(C)(C)CC[C@@H]3O.Cl (some centres undefined) . Its measured log10 of ED20 is 0.48

The recorded log10 of ED20 for entry C=C[C@@]1(C)CC(=O)[C@]2(O)C3(C)C(C(O)C(OC(=O)CN(CC)CC)[C@@]2(C)O1)C(C)(C)CC[C@@H]3O.Cl (some centres undefined) equals 0.30

The value of log10 of ED20 measured for the molecule C=C[C@@]1(C)CC(=O)[C@]2(O)C3(C)C(C(OC(=O)CNCc4ccccc4)C(O)[C@@]2(C)O1)C(C)(C)CC[C@@H]3O.Cl (some centres undefined) turned out to be 0.54

Query C=C[C@@]1(C)CC(=O)[C@]2(O)C3(C)C(C(OC(=O)CCCN4CCN(C)CC4)C(O)[C@@]2(C)O1)C(C)(C)CC[C@@H]3O.Cl (some centres undefined) yields log10 of ED20 of 0.00

// field: log10 of ED20; key: C=C[C@@]1(C)CC(=O)[C@]2(O)C3(C)C(C(O)C(OC(=O)CCCn4cnc5c4c(=O)n(C)c(=O)n5C)[C@@]2(C)O1)C(C)(C)CC[C@@H]3O (some centres undefined) ; value = 0.48

Short answer for C=C[C@@]1(C)CC(=O)[C@]2(O)C3(C)C(C(O)C(OC(=O)Cn4cnc5c4c(=O)n(C)c(=O)n5C)[C@@]2(C)O1)C(C)(C)CC[C@@H]3O (some centres undefined) : log10 of ED20 was 0.48

// log10 of ED20 lookup, molecule = C=C[C@@]1(C)CC(=O)[C@]2(O)C3(C)C(C(OC(=O)C(C)N4CCOCC4)C(O)[C@@]2(C)O1)C(C)(C)CC[C@@H]3O.Cl (some centres undefined) , result: 0.48

The molecule listed as C=C[C@@]1(C)CC(=O)[C@]2(O)C3(C)C(C(O)C(OC(=O)CNC(C)(C)C)[C@@]2(C)O1)C(C)(C)CC[C@@H]3O.Cl (some centres undefined) shows log10 of ED20 equal to 0.00

Per the record, C=C[C@@]1(C)CC(=O)[C@]2(O)C3(C)C(C(O)C(OC(=O)C(C)N4CCCCC4)[C@@]2(C)O1)C(C)(C)CC[C@@H]3O (some centres undefined) has log10 of ED20 of 0.65

Short answer for C=C[C@@]1(C)CC(=O)[C@]2(O)C3(C)C(C(O)C(OC(=O)Cn4nnc5ccccc54)[C@@]2(C)O1)C(C)(C)CC[C@@H]3O (some centres undefined) : log10 of ED20 was 0.48

The reported log10 of ED20 of the molecule C=C[C@@]1(C)CC(=O)[C@]2(O)C3(C)C(C(O)C(OC(=O)CN4CCC(C)CC4)[C@@]2(C)O1)C(C)(C)CC[C@@H]3O.Cl (some centres undefined) was 1.00

Entry C=C[C@@]1(C)CC(=O)[C@]2(O)C3(C)C(C(OC(=O)C(C)N4CCCCC4)C(O)[C@@]2(C)O1)C(C)(C)CC[C@@H]3O.Cl (some centres undefined) — recorded log10 of ED20 = 0.00

---

organism: Cavia porcellus; experiment: Positive inotropic activity in spontaneously beating guinea pig atria; format: functional, organism-based
Give EC50 for every item shown.
Reply with just the number (in µg/mL).

Lab note: C=C[C@@]1(C)CC(=O)[C@]2(O)C3(C)C(C(O)C(OC(=O)C(C)n4cnc5c4c(=O)n(C)c(=O)n5C)[C@@]2(C)O1)C(C)(C)CC[C@@H]3O (stereo partly drawn) gave EC50 of 0.9

C=C[C@@]1(C)CC(=O)[C@]2(O)C3(C)C(C(OC(=O)CCCN4CCN(C)CC4)C(O)[C@@]2(C)O1)C(C)(C)CC[C@@H]3O.Cl (stereo partly drawn) yielded EC50 of 0.2
